- study target: T1, Foxp3-7 peptide/HLA-A*02:01 complex on the cell surface (human)
- T1 construct: also called Foxp3-7/HLA-A2 complex
- run description: flow cytometry, phage on T2 + Foxp3-7 peptide; secondary only 318, unstained 95.8
Assign Median:FITC-A to each entry below.
Response field accepts a number only; no unit should be typed.

Q. Look up and state reported Median:FITC-A for EXT017-32 scFv phage clone (scFv, also called EXT017-32 phage; phage clone #32) scFv: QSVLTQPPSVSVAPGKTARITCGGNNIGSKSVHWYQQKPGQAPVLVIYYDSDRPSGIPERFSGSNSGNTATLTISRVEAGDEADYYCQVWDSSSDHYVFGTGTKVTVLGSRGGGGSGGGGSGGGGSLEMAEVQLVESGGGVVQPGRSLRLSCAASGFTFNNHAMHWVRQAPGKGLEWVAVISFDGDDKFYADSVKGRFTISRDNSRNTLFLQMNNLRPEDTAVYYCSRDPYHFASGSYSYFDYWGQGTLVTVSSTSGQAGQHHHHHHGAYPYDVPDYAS
A. 1640

Q. Look up and state reported Median:FITC-A for #29 (scFv, also called EXT017-29; EXT017-29 scFv phage clone) scFv (VL-linker-VH-His/HA tag): QSVLTQPPSVSAAPRQKVTISCSGSSSNIGNNYVSWYQQLPGTAPKLLIYDDNKRPSGIPDRFSGSKSGTSATLGITGLQTGDEADYYCGTWDSSLSAVVFGGGTKLTVLGSRGGGGSGGGGSGGGGSLEMAQVQLVQSGTEVKRAGASVKVSCKASGYTFTNYYMHWVRQAPGQGLEWMGIINPSIGSTNYAQKFQGRVTMTRDTSTSTVFMELSSLRSDDTAVYYCARSFGDSDGADSWGQGTLVTVSSTSGQAGQHHHHHHGAYPYDVPDYAS
A. 1010
